Values from paper PMC6478789

Experimental Target: EP300 (Homo sapiens, UniProt Q09472)
Sequence (Q09472 1049-1156 limits assumed): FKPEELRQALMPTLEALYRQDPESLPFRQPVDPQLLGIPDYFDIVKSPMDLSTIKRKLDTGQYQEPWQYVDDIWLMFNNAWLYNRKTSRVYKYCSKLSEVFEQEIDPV
Assay: BROMOscan ligand-binding assay

{"Smiles Data": "CCCS(=O)(=O)c1nc(NC2CC2)cc(-c2ccc3c(ccn3C3CC(C)(C)NC(C)(C)C3)c2)n1", "Kd": "> 30 µM"}

###

Experimental Target: PBRM1(2) (Homo sapiens)
Sequence (Q86U86 177-287 limits assumed): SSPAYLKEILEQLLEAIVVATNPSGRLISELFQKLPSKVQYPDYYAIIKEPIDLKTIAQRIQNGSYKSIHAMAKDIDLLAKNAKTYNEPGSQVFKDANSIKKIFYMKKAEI
Assay: BROMOscan ligand-binding assay
Condition Set: KD, PBRM1(2)
pKd: −log10 of the molar value.
Assay Metric: pKd

{"Compound": "O=C(O)c1ccccc1O", "Experimental Target": "PBRM1(2) (Homo sapiens)", "Reading Qualifier": "=", "Measured Result": 3.00}
{"Compound": "CCC(=O)N1CCOc2c(cc(-c3ccc(OC)c(OC)c3)cc2OCC2CCCN(C)C2)C1 (centres unmarked)", "Experimental Target": "PBRM1(2) (Homo sapiens)", "Reading Qualifier": "<", "Measured Result": 4.00}
